Recorded EC50 values for a group of compounds are listed next.
- Target System: S1P1/EDG1 (Homo sapiens, UniProt P21453)
- Sequence (P21453 whole entry): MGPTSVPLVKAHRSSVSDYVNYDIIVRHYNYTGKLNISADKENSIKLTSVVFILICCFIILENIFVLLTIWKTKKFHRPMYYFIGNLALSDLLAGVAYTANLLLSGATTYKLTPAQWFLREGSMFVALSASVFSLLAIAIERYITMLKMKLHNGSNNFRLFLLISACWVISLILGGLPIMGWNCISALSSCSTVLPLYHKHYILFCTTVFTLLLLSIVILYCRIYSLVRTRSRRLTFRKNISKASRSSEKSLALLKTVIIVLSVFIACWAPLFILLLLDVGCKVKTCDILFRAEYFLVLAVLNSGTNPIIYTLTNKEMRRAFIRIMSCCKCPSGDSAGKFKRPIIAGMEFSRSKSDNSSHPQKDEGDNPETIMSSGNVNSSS
- Protocol Details: S1P1 CRE-bla CHOK1 reporter assay, inhibition of Forskolin induced cAMP
- Format: cell-based
- Stated Conditions: agonist activity range; S1P1 CRE-bla CHOK1 cells, 2 μM Forskolin; read-out: S1P1 ACTIVITY
Structures can show the parent of a compound that is named as a salt.

[
  {
    "Compound": "CC(C)Oc1ccc(-c2ncc(-c3cccc4c3CC[C@H]4NC(=O)CN)s2)cc1C#N",
    "Observed Property": "EC50",
    "Measured Result": "0.05 to 0.5 nM"
  },
  {
    "Compound": "CC(C)Oc1ccc(-c2nc(-c3cccc4c3CC[C@@H]4NS(N)(=O)=O)ns2)cc1C#N",
    "Observed Property": "EC50",
    "Measured Result": "0.05 to 0.5 nM"
  },
  {
    "Compound": "CC(C)Oc1ccc(-c2nnc(-c3cccc4c3CCC[C@H]4N)s2)cc1C#N [Compound 228, hydrochloride]",
    "Observed Property": "EC50",
    "Measured Result": "0.5 to 5 nM"
  }
]

[Q] So what's the measured EC50 for this one? CC(C)Oc1ccc(-c2nnc(-c3cccc4c3CCC[C@H]4NS(=O)(=O)CC(=O)O)s2)cc1C#N
[A] 0.05 to 0.5 nM

[Q] So what's the measured EC50 for this one? CC(C)Oc1ccc(-c2nnc(-c3cccc4c3CC[C@H]4NCc3ncc[nH]3)s2)cc1C#N
[A] 0.05 to 0.5 nM

[Q] So what's the measured EC50 for this one? CC(C)Oc1ccc(-c2nnc(-c3cccc4c3CC[C@H]4NCC(=O)N3CCOCC3)s2)cc1C#N
[A] 0.05 to 0.5 nM

[Q] So what's the measured EC50 for this one? CC(C)Oc1ccc(-c2nnc(-c3cccc4c3CCC[C@H]4NCc3ccncc3)s2)cc1C#N
[A] 0.5 to 5 nM

[Q] So what's the measured EC50 for this one? CC(C)Oc1ccc(-c2nnc(-c3cccc4c3CCC[C@H]4NCCO)s2)cc1C#N
[A] 0.5 to 5 nM

[Q] So what's the measured EC50 for this one? CC(C)Oc1ccc(-c2nnc(-c3cccc4c3CCC[C@@H]4NC(=O)CCNS(C)(=O)=O)s2)cc1C#N
[A] 0.5 to 5 nM

====

Recorded pEC50 values for a group of molecules are listed next.
- Target System: S1P1/EDG1 (Homo sapiens, UniProt P21453)
- Protocol Details: S1P1 CRE-bla CHOK1 reporter assay, inhibition of Forskolin induced cAMP
- Type: cell-based
- Stated Conditions: agonist activity range; S1P1 CRE-bla CHOK1 cells, 2 μM Forskolin; read-out: S1P1 ACTIVITY
pEC50: −log10 of the molar value.

[
  {
    "Smiles": "CC(C)Oc1ccc(-c2nnc(-c3cccc4c3CCC[C@@H]4NC(=O)CCO)s2)cc1C#N",
    "pEC50": "9.30 to 10.30"
  },
  {
    "Smiles": "CC(C)Oc1ccc(-c2nnc(-c3cccc4c3CC[C@H]4NS(=O)(=O)CC(=O)O)s2)cc1C#N",
    "pEC50": "> 10.30"
  },
  {
    "Smiles": "CC(C)Oc1ccc(-c2nnc(-c3cccc4c3CCC[C@H]4NC(=O)CCO)s2)cc1C#N",
    "pEC50": "9.30 to 10.30"
  },
  {
    "Smiles": "CC(C)Oc1ccc(-c2nnc(-c3cccc4c3CCC[C@H]4NC(=O)CCNS(C)(=O)=O)s2)cc1C#N",
    "pEC50": "8.30 to 9.30"
  },
  {
    "Smiles": "CC(C)Oc1ccc(-c2nnc(-c3cccc4c3CCC[C@H]4NS(C)(=O)=O)s2)cc1C#N",
    "pEC50": "9.30 to 10.30"
  }
]

[Q] So what's the measured pEC50 for this one? CC(C)Oc1ccc(-c2ncc(-c3cccc4c3CC[C@@H]4NCC(=O)N3CC[C@@H](O)C3)s2)cc1C#N
[A] < 8.30

[Q] So what's the measured pEC50 for this one? CC(C)Oc1ccc(-c2ncc(-c3cccc4c3CC[C@H]4NC(=O)N3CC[C@@H](O)C3)s2)cc1C#N
[A] 9.30 to 10.30

[Q] So what's the measured pEC50 for this one? CC(C)Oc1ccc(-c2nnc(-c3cccc4c3CCC[C@H]4NS(N)(=O)=O)s2)cc1C#N
[A] 9.30 to 10.30

====

- Target System: S1P1/EDG1 (Homo sapiens)
- Protocol Details: S1P1 CRE-bla CHOK1 reporter assay, inhibition of Forskolin induced cAMP
- Type: cell-based
- Stated Conditions: S1P1 CRE-bla CHOK1 cells, 2 μM Forskolin; read-out: S1P1 agonist value (EC50)
Recorded EC50 values for a group of molecules are listed next.
# unit: nM | format: bare number

Answered examples (2):
[
  {
    "Smiles": "CC(C)Oc1ccc(-c2ncc(-c3cccc4c3CC[C@H]4NC(=O)N3CCCC3)s2)cc1C#N",
    "Units Text": "nM",
    "EC50": 0.19
  },
  {
    "Smiles": "CC(C)Oc1ccc(-c2ncc(-c3cccc4c3CC[C@H]4NS(N)(=O)=O)s2)cc1C#N",
    "Units Text": "nM",
    "EC50": 0.14
  }
]

Consider now this further molecule.
[Q] // lookup EC50 | system=S1P1/EDG1 (Homo sapiens) | key= CC(C)Oc1ccc(-c2nnc(-c3cccc4c3CC[C@H]4NC(=O)N3CC[C@@H](N(C)C)C3)s2)cc1C#N
[A] 0.32

====

- Target System: S1P1/EDG1 (Homo sapiens, UniProt P21453)
- Protocol Details: S1P1 CRE-bla CHOK1 reporter assay, inhibition of Forskolin induced cAMP
- Assay type: cell-based
- Stated Conditions: agonist activity range; S1P1 CRE-bla CHOK1 cells, 2 μM Forskolin; read-out: S1P1 ACTIVITY
Counter-ions that a name gives are not always drawn.
Recorded EC50 values for a group of molecules are listed next.

Answered examples (8):
[
  {
    "Molecule": "CC(C)Oc1ccc(-c2nc(-c3cccc4c3CC[C@@H]4N)ns2)cc1C#N [Compound 307, hydrochloride]",
    "EC50": "0.5 to 5 nM"
  },
  {
    "Molecule": "CC(C)Oc1ccc(-c2nc(-c3cccc4c3CC[C@@H]4NCCO)ns2)cc1C#N [Compound 311, hydrochloride]",
    "EC50": "0.5 to 5 nM"
  },
  {
    "Molecule": "CC(C)Oc1ccc(-c2ncc(-c3cccc4c3CC[C@H]4NS(N)(=O)=O)s2)cc1C#N",
    "EC50": "0.05 to 0.5 nM"
  },
  {
    "Molecule": "CC(C)Oc1ccc(-c2ncc(-c3cccc4c3CC[C@H]4NS(=O)(=O)CCC(=O)O)s2)cc1C#N",
    "EC50": "< 0.05 nM"
  },
  {
    "Molecule": "CC(C)Oc1ccc(-c2nnc(-c3cccc4c3CCC[C@H]4NS(=O)(=O)CC(=O)N(C)C)s2)cc1C#N",
    "EC50": "0.05 to 0.5 nM"
  },
  {
    "Molecule": "COCCS(=O)(=O)N[C@H]1CCCc2c(-c3nnc(-c4ccc(OC(C)C)c(C#N)c4)s3)cccc21",
    "EC50": "0.05 to 0.5 nM"
  },
  {
    "Molecule": "COC(=O)CS(=O)(=O)N[C@@H]1CCc2c(-c3cnc(-c4ccc(OC(C)C)c(C#N)c4)s3)cccc21",
    "EC50": "0.05 to 0.5 nM"
  },
  {
    "Molecule": "CC(C)Oc1ccc(-c2nnc(-c3cccc4c3CCC[C@H]4NC(=O)c3cccnc3)s2)cc1C#N",
    "EC50": "0.5 to 5 nM"
  }
]

[Q] So what's the measured EC50 for this one? CC(C)Oc1ccc(-c2ncc(-c3cccc4c3CC[C@H]4NCC(=O)N3CC[C@@H](O)C3)s2)cc1C#N
[A] 0.05 to 0.5 nM

[Q] So what's the measured EC50 for this one? CC(C)Oc1ccc(-c2nnc(-c3cccc4c3CCC[C@@H]4NS(=O)(=O)CCO)s2)cc1C#N
[A] 0.05 to 0.5 nM

[Q] So what's the measured EC50 for this one? CC(C)Oc1ccc(-c2nnc(-c3cccc4c3CCC[C@H]4NS(=O)(=O)CCO)s2)cc1C#N
[A] 0.05 to 0.5 nM

====

- Target System: S1P2 (Homo sapiens, UniProt O95136)
- Sequence (O95136 whole entry, species assumed): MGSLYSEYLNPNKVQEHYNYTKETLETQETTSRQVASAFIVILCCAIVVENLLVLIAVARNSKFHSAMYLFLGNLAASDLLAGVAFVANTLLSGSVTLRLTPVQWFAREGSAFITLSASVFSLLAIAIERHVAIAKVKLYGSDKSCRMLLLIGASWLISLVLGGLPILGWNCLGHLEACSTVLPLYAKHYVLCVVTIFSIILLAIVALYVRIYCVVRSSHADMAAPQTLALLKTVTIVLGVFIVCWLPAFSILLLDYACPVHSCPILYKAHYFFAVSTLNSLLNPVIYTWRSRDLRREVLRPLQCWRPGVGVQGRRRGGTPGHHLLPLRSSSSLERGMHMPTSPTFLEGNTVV
- Protocol Details: Specificity over other S1P receptors: S1P2 CRE-bla CHOK1
- Stated Conditions: S1P2 CRE-bla CHOK1, without Forskolin; read-out: S1P2 agonist value (EC50)
Observed Property: EC50

Answered examples (2):
[
  {
    "Smiles": "CC(C)Oc1ccc(-c2ncc(-c3cccc4c3CC[C@H]4NC(=O)N3CCOCC3)s2)cc1C#N",
    "EC50": "> 10 µM"
  },
  {
    "Smiles": "CC(C)Oc1ccc(-c2nnc(-c3cccc4c3CC[C@H]4NC(=O)N3CC[C@@H](N(C)C)C3)s2)cc1C#N",
    "EC50": "> 10 µM"
  }
]

Consider now this further compound.
[Q] So what's the measured EC50 for this one? CC(C)Oc1ccc(-c2ncc(-c3cccc4c3CC[C@H]4NC(=O)N3CCCC3)s2)cc1C#N
[A] > 10 µM
